Biological target: ACAT in J774 cell (Mus musculus, UniProt Q61263)
Construct: endogenous in cells; host or cells: J774 cells
Sequence (Q61263 whole entry): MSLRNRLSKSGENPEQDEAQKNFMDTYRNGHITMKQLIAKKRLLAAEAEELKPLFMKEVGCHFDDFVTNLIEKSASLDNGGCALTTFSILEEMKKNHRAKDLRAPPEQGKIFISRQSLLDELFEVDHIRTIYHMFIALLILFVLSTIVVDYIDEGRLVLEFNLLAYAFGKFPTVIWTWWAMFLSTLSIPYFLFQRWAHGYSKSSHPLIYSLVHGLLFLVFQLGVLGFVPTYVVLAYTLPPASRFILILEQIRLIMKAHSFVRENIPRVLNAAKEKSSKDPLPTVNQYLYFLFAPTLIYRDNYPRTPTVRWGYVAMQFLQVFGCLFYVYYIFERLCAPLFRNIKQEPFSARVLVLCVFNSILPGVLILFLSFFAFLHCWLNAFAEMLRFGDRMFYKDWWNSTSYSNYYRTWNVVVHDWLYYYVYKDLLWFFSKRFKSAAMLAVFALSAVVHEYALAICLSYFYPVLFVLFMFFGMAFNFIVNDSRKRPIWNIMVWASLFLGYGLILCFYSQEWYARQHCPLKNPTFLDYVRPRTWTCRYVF
Assay: ACAT inhibiting activity in J774 cell (anti-foaming activity)
Format: cell-based
Details: ratio of the two cell IC50 values
Method: ACAT inhibiting activities in J774 cell and HepG2 cell (Anti-foaming activities). J774 cell and HepG2 cell were sown on 24-holes-plates, and J774 cell was cultured with DMEM culturing solution (including 10% fetal bovine serum) and HepG2 cell was cultured with MEM culturing solution (including 10% fatal bovine serum) and they were incubated with 5% CO2 at 37° C. for 24 hours. […]
The label Satisfied is reserved for IC50 (HepG 2)/IC50 (J 774) strictly under 6; Not satisfied covers values equal to or above it.

- Molecule: "CC(C)c1cccc(C(C)C)c1NC(=O)C(C)(C)CCCOc1ccc2c(c1)C=C(c1nccn1C)C(CCc1ccc(F)cc1)O2 (stereo not drawn) [Control (1), reference compound]"
  Study system: "ACAT in J774 cell (Mus musculus, UniProt Q61263)"
  Label class: "Not satisfied"
- Molecule: "CC(C)c1cccc(C(C)C)c1NC(=O)CSc1nc2ccccc2[nH]1"
  Study system: "ACAT in J774 cell (Mus musculus, UniProt Q61263)"
  Label class: "Not satisfied"
- Molecule: "CC(C)c1cccc(C(C)C)c1NC(=O)CCSc1nc2ccccc2o1"
  Study system: "ACAT in J774 cell (Mus musculus, UniProt Q61263)"
  Label class: "Satisfied"
- Molecule: "CC(C)c1cccc(C(C)C)c1NC(=O)CCCSc1nc2ccccc2s1"
  Study system: "ACAT in J774 cell (Mus musculus, UniProt Q61263)"
  Label class: "Satisfied"
- Molecule: "CCCCCCCN(CCCCCSc1nc(-c2ccccc2)c(-c2ccccc2)[nH]1)c1nc2ccccc2o1 [Control (4), reference compound]"
  Study system: "ACAT in J774 cell (Mus musculus, UniProt Q61263)"
  Label class: "Not satisfied"
- Molecule: "CC(C)c1cccc(C(C)C)c1NC(=O)CSc1nc2ccccc2o1"
  Study system: "ACAT in J774 cell (Mus musculus, UniProt Q61263)"
  Label class: "Satisfied"
